Values were extracted from PubChem BioAssay AID1159580.

# Test Summary: chemical genetic growth profiling, strain panel (AID 1159580);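 also: tested at 20 µM; growth read once vehicle control cultures reached saturation at 30 °C; 1 = growth at the plate median or of vehicle wells; lower values mean less growth of the strain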
# Measurement Parameters: S. cerevisiae deletion strains, growth OD, locus YLR039C, strain RIC1, stronger effect = lower value
In all, about 5,500 compounds went through this assay and about 2,000 (36%) were called active. Not shown: some 18% with an inconclusive outcome. The list shows a part of the results.
Property: normalized growth

Recorded normalized growth for CCOC(=O)C1=C(C)NC(C)=C(C(=O)OC)C1c1cccc([N+](=O)[O-])c1 (configuration not stated) , please?
0.968 (inactive)

Recorded normalized growth for COc1ccc(/C(C#N)=C/c2ccc(OC)c(OC)c2)cc1 , please?
0.717 (active)

Recorded normalized growth for CCCCC(=O)N(Cc1ccc(-c2ccccc2-c2nn[nH]n2)cc1)[C@H](C(=O)O)C(C)C , please?
0.963 (inactive)

Recorded normalized growth for Cc1c(N(C)CS(=O)(=O)O)c(=O)n(-c2ccccc2)n1C , please?
0.92 (inactive)

Recorded normalized growth for N#C/C(=C\c1ccc(O)cc1)C(=O)O , please?
0.981 (inactive)

Recorded normalized growth for CC(=O)O[C@@H]1CC2C(C)(C)C(=O)[C@@H]3O[C@@H]3[C@]2(C)C2CC[C@]3(C)C(=CC(=O)O[C@H]3c3ccoc3)[C@@]21C (some centres not stated) , please?
0.99 (inactive)

Recorded normalized growth for CC(=O)N[C@@H](CC(=O)O)C(=O)O , please?
0.984 (inactive)

Recorded normalized growth for COc1ccccc1N=C1SCC(=O)N1Cc1ccco1 , please?
0.989 (inactive)

Recorded normalized growth for COc1c2c(cc3occ(-c4ccc5c(c4)OCO5)c(=O)c13)OC(C)(C)C=C2 , please?
0.939 (inactive)

Recorded normalized growth for Cc1ccc(C(=O)NNC(=O)c2ccncc2)c(C)c1 , please?
1.03 (inactive)

Recorded normalized growth for CC(NC(=S)Nc1ccc(Oc2ccc(Cl)cc2)cc1)c1ccccc1 (configuration not stated) , please?
0.78 (active)

Recorded normalized growth for Cc1cccc(N2C(=O)C3C4C=CC(C4)C3C2=O)n1 (configuration not stated) , please?
0.977 (inactive)

Recorded normalized growth for CC(C)=CCC1=C(O)c2ccccc2C(=O)C1=O , please?
0.705 (inactive)

Recorded normalized growth for COc1ccccc1N1CCN(S(=O)(=O)c2ccc(C(F)(F)F)cc2)CC1 , please?
0.952 (inactive)

Recorded normalized growth for O=c1c(-c2ccc3c(c2)OCO3)coc2cc(O)ccc12 , please?
0.969 (inactive)

Recorded normalized growth for O=C(c1ccc(Cl)cc1)N1CCN(c2ccc(C(F)(F)F)cn2)CC1 , please?
1.16 (inactive)

Recorded normalized growth for COc1cccc(CC(=O)NN)c1 , please?
1.02 (inactive)

Recorded normalized growth for C[C@]12CCC3C(CC[C@H]4CC(=O)CC[C@]34C)C1CCC2=O (some centres not stated) , please?
0.504 (active)

Recorded normalized growth for CCC(=O)Oc1ccc(NC(=S)NCCCO)cc1 , please?
0.996 (inactive)

Recorded normalized growth for C[C@]12CCC3C(CC[C@H]4C[C@@H](O)CC[C@]34C)C1CCC2=O (some centres not stated) , please?
0.388 (active)

Recorded normalized growth for COc1cc(NC(=O)Nc2ccc(OC(F)(F)F)cc2)cc(C(F)(F)F)c1 , please?
0.895 (inactive)

Recorded normalized growth for O=C1CCC(=O)N1CNc1ccccc1OC(F)(F)F , please?
0.991 (inactive)

Recorded normalized growth for COc1ccc(/C=C(\C#N)c2nc3ccccc3[nH]2)cc1OC , please?
0.817 (inactive)

Recorded normalized growth for Nc1ncnc2c1ncn2[C@@H]1O[C@H](CO)[C@@H](O)[C@@H]1O , please?
1.02 (inactive)

Recorded normalized growth for CC(=O)NN(C)c1ccc(C(F)(F)F)cc1[N+](=O)[O-] , please?
1 (inactive)

Recorded normalized growth for COc1cc(O)c(C)c(O)c1 , please?
1.02 (inactive)

Recorded normalized growth for CC1=CC(C)(C)NC(=S)N1 , please?
1.01 (inactive)

Recorded normalized growth for O=C1c2ccc(O)c(O)c2C(=O)c2c(O)ccc(O)c21 , please?
1.03 (inactive)

Recorded normalized growth for O=C(NC(=S)Nc1ccc(Cl)cc1)c1ccc([N+](=O)[O-])o1 , please?
0.899 (inactive)

Recorded normalized growth for COc1cc(O)c(C(=O)O)c(O)c1 , please?
1.06 (inactive)

Recorded normalized growth for NNC(=S)Nc1cc(C(F)(F)F)ccc1Cl , please?
0.711 (active)

Recorded normalized growth for CC(=O)OCC(=O)[C@@]1(O)CCC2C3CCC4=CC(=O)CC[C@]4(C)[C@@]3(F)[C@@H](O)C[C@@]21C (some centres not stated) , please?
1.04 (inactive)

Recorded normalized growth for COc1cc(O)c(C(C)=O)c(OC)c1 , please?
1.1 (inactive)

Recorded normalized growth for NCCS , please?
1.05 (inactive)

Recorded normalized growth for CN1CCN(C(c2ccccc2)c2ccccc2)CC1 , please?
1 (inactive)

Recorded normalized growth for CCSC(SCC)[C@H](O)[C@@H](O)[C@H](O)CO , please?
0.992 (inactive)

Recorded normalized growth for Cc1cccc(NCN2C(=O)CCC2=O)n1 , please?
0.643 (active)

Recorded normalized growth for CSc1sc(-c2ccn[nH]2)c(-c2ccccc2)c1C#N , please?
0.846 (inactive)

Recorded normalized growth for Fc1ccc(C(c2ccc(F)cc2)N2CCN(C/C=C/c3ccccc3)CC2)cc1 , please?
1.36 [resistant] (active)

Recorded normalized growth for COc1ccc2c(=O)c(-c3cc4c(cc3OC)OCO4)coc2c1 , please?
1.13 (inactive)

Recorded normalized growth for COc1c(O)cc(O)cc1O , please?
1.06 (inactive)

Recorded normalized growth for C[C@]12CCC3C(CC[C@H]4C[C@@H](Cl)CC[C@]34C)C1CCC2=O (some centres not stated) , please?
0.769 (inactive)

Recorded normalized growth for CC1(C)C=Cc2c(cc3occ(-c4ccc5c(c4)OCO5)c(=O)c3c2O)O1 , please?
1.11 (inactive)

Recorded normalized growth for O=[N+]([O-])c1ccc(C2N(Cc3ccccc3)CCC3CCCCN32)cc1 (configuration not stated) , please?
1 (inactive)

Recorded normalized growth for Cc1oc(-c2ccccc2)cc1C(=O)N1CCN(c2ccc(C(F)(F)F)cn2)CC1 , please?
0.876 (inactive)

Recorded normalized growth for FC(F)(F)c1ccc(-n2cncn2)nc1 , please?
1.04 (inactive)

Recorded normalized growth for COc1cc(O)c(C(=O)c2ccccc2)c(OC)c1 , please?
0.827 (inactive)
